systemTested: Recombinant human JAK1 catalytic domain (Homo sapiens, UniProt P23458)
Construct: amino acids 866-1154; catalog number PV4774; purchased Invitrogen PV4774
Sequence (P23458 866-1154): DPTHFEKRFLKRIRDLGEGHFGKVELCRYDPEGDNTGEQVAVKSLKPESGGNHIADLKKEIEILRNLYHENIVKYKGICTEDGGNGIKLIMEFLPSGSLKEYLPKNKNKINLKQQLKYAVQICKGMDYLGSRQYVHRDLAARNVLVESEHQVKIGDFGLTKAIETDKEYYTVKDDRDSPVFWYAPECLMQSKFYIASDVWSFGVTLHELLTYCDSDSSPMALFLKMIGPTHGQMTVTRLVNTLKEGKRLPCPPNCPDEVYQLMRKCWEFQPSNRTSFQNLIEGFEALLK
experimentDescription: JAK1 assay polyGT substrate
Assay type: biochemical
assaySetup: average; read-out: IC50 (average)
propertyMeasured: IC50 (µM)
Numbers only here, please. The scale is µM.

Return IC50 measured with Recombinant human JAK1 catalytic domain (Homo sapiens, UniProt P23458) given this molecule: Nc1nc2cccc(-c3ccc(CN4CCS(=O)(=O)CC4)cc3)n2n1 0.546

* * *

experimentDescription: Single dose pharmacokinetics in animals, rat
Type: in vivo, Sprague-Dawley rats
assaySetup: Sprague-Dawley, plasma, male, Formula I 20 mg/kg single oral dose, read-out: AUC
propertyMeasured: AUC (ng·h/mL)
API: value field is a number in ng·h/mL; no unit string.

Would you mind telling me what AUC value was observed for Nc1nc2cccc(-c3ccc(CN4CCS(=O)(=O)CC4)cc3)n2n1 ? 19700

Reference source for all entries: patent US20160296529A1
